Values from ChEMBL document CHEMBL2040725

# MTD values compiled below
Assay: Toxicity in mouse ip dosed BALB/cJRj mouse allografted with mouse Colon 26 cells compound administered on days 3-7 and 10-14 post implantation relative to control
Type: organism-based
Details: in vivo
quantity: MTD (mg/kg)

| structure.as.smiles | measured.result |
| --- | --- |
| COc1ccc(-c2nn[nH]c2Cc2cc(OC)c(OC)c(OC)c2)cc1O | 100 |
| COc1ccc(/C=C(/Cc2cc(OC)c(OC)c(OC)c2)[N+](=O)[O-])cc1O | 150 |
